B1: TRIM55 (parent)
chain: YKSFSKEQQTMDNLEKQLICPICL

Variants of: B1
TEST_DESCRIPTION: protein stability index of a GFP-peptide fusion (GPS, HEK-293T) (PSI 1-6); higher = more stable;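 note: lentivirally expressed fusions sorted by FACS into six bins by GFP to DsRed ratio, PSI derived from sequencing read proportions per bin multiplied by bin number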
EXPERIMENTAL_CONTEXT: c terminus: a fixed tail appended
Each entry below carries its reported protein stability index.
Give the value as a plain number.

Previously resolved entries follow.
MUTANT_LABEL: K16E
protein stability index: 1.68
//
MUTANT_LABEL: K16N
protein stability index: 2.07
//
MUTANT_LABEL: L18A
protein stability index: 2.81

Fill blank: measured protein stability index of the variant L24S is ____.
2.13
